- target.or.system: Serotonin reuptake (whole rat brain synaptosomes) (Rattus norvegicus, UniProt P31652)
- Construct: from tissue; host or cells: whole rat brain synaptosomes
- Sequence (P31652 whole entry): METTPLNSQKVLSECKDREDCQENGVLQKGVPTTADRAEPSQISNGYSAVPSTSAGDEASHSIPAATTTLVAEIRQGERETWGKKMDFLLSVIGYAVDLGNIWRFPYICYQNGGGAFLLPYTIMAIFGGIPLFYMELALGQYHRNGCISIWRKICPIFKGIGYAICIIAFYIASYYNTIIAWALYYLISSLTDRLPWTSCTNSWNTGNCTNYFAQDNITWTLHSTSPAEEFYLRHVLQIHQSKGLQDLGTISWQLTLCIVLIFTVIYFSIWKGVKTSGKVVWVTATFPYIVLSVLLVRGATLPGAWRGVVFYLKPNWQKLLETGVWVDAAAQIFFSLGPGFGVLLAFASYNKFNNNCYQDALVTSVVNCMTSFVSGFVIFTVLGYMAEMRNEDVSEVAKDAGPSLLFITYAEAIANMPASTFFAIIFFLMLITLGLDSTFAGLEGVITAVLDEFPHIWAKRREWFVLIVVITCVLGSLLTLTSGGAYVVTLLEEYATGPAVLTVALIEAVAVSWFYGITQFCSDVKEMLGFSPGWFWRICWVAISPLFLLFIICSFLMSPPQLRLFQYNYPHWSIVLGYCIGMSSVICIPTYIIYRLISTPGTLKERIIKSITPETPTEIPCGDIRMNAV
- assay.text: Inhibition of 3H-5-HT uptake into rat brain synaptosomes
- Type: biochemical
- recorded.conditions: 3H-5-HT accumulation into whole rat brain synaptosomes, in vitro; read-out: Inhibition of Serotonin reuptake IC50
Our labelling divides records by IC50 into ranges: low interval (below 20 nM), middle interval (20 nM to below 300 nM), high interval (300 nM or more)

INSERT INTO assay_data (compound, group_label) VALUES
  ('c1ccc2c(CCCN3CCN(c4cccc5[nH]ccc45)CC3)c[nH]c2c1 [Compound 1f]', 'low interval'),
  ('N#Cc1c[nH]c2cccc(N3CCN(CCc4coc5ccc(F)cc45)CC3)c12 [Compound 4n]', 'middle interval'),
  ('COC(=O)c1cc(N2CCN(CCc3coc4ccc(F)cc34)CC2)c2cc[nH]c2c1 [Compound 4h]', 'middle interval'),
  ('c1cc(N2CCN(CCc3n[nH]c4ccccc34)CC2)c2cc[nH]c2c1 [Compound 1j]', 'high interval'),
  ('Fc1ccc2occ(CN3CCN(c4cccc5[nH]ccc45)CC3)c2c1 [Compound 4l]', 'high interval'),
  ('Clc1ccc2c(CCN3CCN(c4cccc5[nH]ccc45)CC3)n[nH]c2c1 [Compound 1k]', 'middle interval'),
  ('c1cc(N2CCN(Cc3coc4ccccc34)CC2)c2cc[nH]c2c1 [Compound 1b]', 'middle interval'),
  ('c1ccc2c(CCCCN3CCN(c4cccc5[nH]ccc45)CC3)c[nH]c2c1 [Compound 1g]', 'low interval');

Query block: Where would N#Cc1c[nH]c2cccc(N3CCN(CCc4coc5ccccc45)CC3)c12 [Compound 4p] land among the classes by reported IC50?
Result block: middle interval

Query block: Next compound: Fc1ccc2occ(CCCN3CCN(c4cccc5[nH]ccc45)CC3)c2c1 [Compound 1h]
Result block: low interval

Query block: Next compound: Fc1ccc2occ(CCCCN3CCN(c4cccc5[nH]ccc45)CC3)c2c1 [Compound 1d]
Result block: middle interval

Query block: Next compound: Fc1ccc2c(CCCN3CCN(c4cccc5[nH]ccc45)CC3)noc2c1 [Compound 4a]
Result block: high interval

###

Structures can show the parent of a compound that is named as a salt.
Each record here notes measured melting point.

Past entries and their recorded results:
INSERT INTO measurements (compound, assay_result) VALUES
  ('Fc1ccc2[nH]cc(CCN3CCN(c4cccc5[nH]ccc45)CC3)c2c1 (as salt: fumarate)', '212 to 215 °C'),
  ('N#Cc1c[nH]c2cccc(N3CCN(CCc4c[nH]c5cccc(Cl)c45)CC3)c12 (as salt: fumarate)', '> 250 °C');

Query block: Look at this compound and give its reported melting point. Brc1cccc2c(CCN3CCN(c4cccc5[nH]ccc45)CC3)c[nH]c12 (as salt: oxalate)
Result block: 149 to 151 °C

Query block: Next compound: C#CCn1ccc2c(N3CCN(CCc4c[nH]c5cc(Cl)ccc45)CC3)cccc21
Result block: 197 to 199 °C

Query block: Next compound: Clc1cccc2[nH]cc(CCN3CCN(c4cccc5[nH]ccc45)CC3)c12 (as salt: oxalate)
Result block: 245 to 247 °C

Query block: Next compound: Cc1ccc2c(CCN3CCN(c4cccc5[nH]ccc45)CC3)coc2c1 (as salt: oxalate)
Result block: 190 to 192 °C

Query block: Next compound: c1ccc2c(CCCN3CCN(c4cccc5[nH]ccc45)CC3)c[nH]c2c1 (as salt: oxalate)
Result block: 198 to 204 °C

Query block: Next compound: Clc1ccc2c(CCN3CCN(c4cccc5[nH]ccc45)CC3)n[nH]c2c1 (as salt: oxalate)
Result block: 255 to 258 °C

Query block: Next compound: c1ccc2c(CCN3CCN(c4cccc5[nH]ccc45)CC3)c[nH]c2c1 (as salt: oxalate)
Result block: 167 to 169 °C

Query block: Next compound: COC(=O)c1cc(N2CCN(CCc3coc4ccc(F)cc34)CC2)c2cc[nH]c2c1 (as salt: oxalate)
Result block: 227 to 228 °C
